# assay.target: T1, CD7-His protein (UniProt P09564 26-180, limits assumed)
# T1 construct: extracellular domain; also called recombinant CD7-His protein; CD7 antigen; not shown: His tag
# T1 sequence (looked up): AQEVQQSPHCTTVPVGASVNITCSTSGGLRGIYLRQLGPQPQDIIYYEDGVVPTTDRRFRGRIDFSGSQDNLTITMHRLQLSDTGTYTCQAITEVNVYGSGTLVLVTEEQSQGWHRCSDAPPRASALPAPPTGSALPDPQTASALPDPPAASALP
# assay.overview: SPR, CD7-His immobilised on CM5 chip by amino coupling, antibody as analyte
koff reference
The response must be a number in s⁻¹ with no trailing unit.

Example cases with answers are listed next.
• dVHH-E (other, also called VHH-10+VHH-10; double VHH antibody dVHH-E; not shown: Linker) chain (part 1 of 2): QVQLQESGGGLVQTGGSLRLSCEASERTFSSNAVGWFRQAPGKEREFVAAITWSVGTTYYADSVKGRFTISRDNAKNTVYLQMNSLKPEDTAVYYCAASGARHYSGSYLDFGSWGQGTQVTVSS chain (part 2 of 2): QVQLQESGGGLVQTGGSLRLSCEASERTFSSNAVGWFRQAPGKEREFVAAITWSVGTTYYADSVKGRFTISRDNAKNTVYLQMNSLKPEDTAVYYCAASGARHYSGSYLDFGSWGQGTQVTVSS = 0.000557
• dVHH-D (other, also called VHH-10+VHH-12; double VHH antibody dVHH-D; not shown: Linker) chain (part 1 of 2): QVQLQESGGGLVQTGGSLRLSCEASERTFSSNAVGWFRQAPGKEREFVAAITWSVGTTYYADSVKGRFTISRDNAKNTVYLQMNSLKPEDTAVYYCAASGARHYSGSYLDFGSWGQGTQVTVSS chain (part 2 of 2): QVQLQESGGGLVQPGGSLRLSCAASGSTLDYYAIGWFRQAPGKEREGISCISNSGGMTNYADSVKGRFTISRDNAKNTVYLQMNSLKPEDTAVYYCAAGPAWSYCSGYVPAGLDKFGSWGQGTQVTVSS = 0.000754
• VHH10 (VHH, Variable region only; also called anti-CD7 nanobody VHH10) VHH: QVQLQESGGGLVQTGGSLRLSCEASERTFSSNAVGWFRQAPGKEREFVAAITWSVGTTYYADSVKGRFTISRDNAKNTVYLQMNSLKPEDTAVYYCAASGARHYSGSYLDFGSWGQGTQVTVSS = 0.0164

response.value for VHH12 (VHH, Variable region only; also called anti-CD7 nanobody VHH12) VHH: QVQLQESGGGLVQPGGSLRLSCAASGSTLDYYAIGWFRQAPGKEREGISCISNSGGMTNYADSVKGRFTISRDNAKNTVYLQMNSLKPEDTAVYYCAAGPAWSYCSGYVPAGLDKFGSWGQGTQVTVSS (field: koff) = 9.95e-05

Value source: patent US20250352579A1
